assay: chemical genetic growth profiling, strain panel (AID 1159580);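 further: tested at 20 µM; growth read once vehicle control cultures reached saturation at 30 °C; 1 = growth at the plate median or of vehicle wells; lower values mean less growth of the strain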; conditions: S. cerevisiae deletion strains, growth OD, locus YHR030C, strain SLT2
The campaign covered roughly 5,500 compounds. About 2,000 (36%) were called active. Roughly 18% stayed inconclusive and do not appear here. No stated cut-off is given here; in the data, active means normalized growth mostly below about 0.91 (no sharp cut-off); inconclusive means no clear call, values can overlap the other calls; inactive means mostly above about 0.92. Some of the results follow.
Classes to choose from: T = active, F = inactive

Some solved cases for reference:
compound=CSc1n[nH]c(-c2cc(C(F)(F)F)cc(C(F)(F)F)c2)n1 assigned_class=T
compound=Cc1cc(OCOc2ccc(Cl)c(C)c2)ccc1Cl assigned_class=F
compound=Cc1ccc(S(=O)(=O)n2c(Sc3ccc([N+](=O)[O-])cc3[N+](=O)[O-])nc3cc(C)ccc32)cc1 assigned_class=T
compound=Cc1noc(C)c1-c1nc(-c2cc(C(F)(F)F)cc(C(F)(F)F)c2)no1 assigned_class=F
compound="c1cc2c(cc1N=C1SCC3CCCCN13)OCO2 (configuration not stated)" assigned_class=F
compound=Nc1ccc(Sc2ccccc2)nc1Sc1ccccc1 assigned_class=T
compound="COc1c(-c2coc3cc4c(cc3c2=O)CC(OC(C)=O)C(C)(C)O4)ccc2c1C=CC(C)(C)O2 (configuration not stated)" assigned_class=F
compound=Nc1ccc(-n2nc(C(F)(F)F)cc2C(F)(F)F)cc1 assigned_class=T
compound=Fc1cccc(Cl)c1CSc1n[nH]c(-c2cc(C(F)(F)F)cc(C(F)(F)F)c2)n1 assigned_class=T
compound="COc1c(-c2coc3cc4c(cc3c2=O)CC(O)C(C)(C)O4)ccc2c1C=CC(C)(C)O2 (configuration not stated)" assigned_class=F

Can you look up the reported call for Cc1cc(O)cc(O)c1C(=O)O for me?
F

Can you look up the reported call for Cc1oc(C(C)(C)C)cc1-c1cc(N)n(-c2ccc(I)cc2)n1 for me?
T

Can you look up the reported call for Cc1nc(-c2nnc(Sc3ccc(C(F)(F)F)cc3[N+](=O)[O-])n2C)cs1 for me?
F

Can you look up the reported call for COc1ccc(C(=O)CN2CCN(c3cc(C)nc4ccccc34)CC2)cc1 for me?
F

Can you look up the reported call for COc1ccc(Oc2cc(C)nc3ccccc23)cc1 for me?
T

Can you look up the reported call for Nc1ccccc1C(=O)N/N=C\c1cc(Br)ccc1O for me?
F

Can you look up the reported call for C=CCc1c(CCC)nc(-c2ccccn2)[nH]c1=O for me?
F

----------
experiment: chemical genetic growth profiling, strain panel (AID 1159580);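 further: tested at 20 µM; growth read once vehicle control cultures reached saturation at 30 °C; 1 = growth at the plate median or of vehicle wells; lower values mean less growth of the strain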; conditions: S. cerevisiae deletion strains, growth OD, locus YER110C, active compounds read low
Among all 5,500 compounds or so, about 2,000 (36%) were called active. Roughly 18% stayed inconclusive and do not appear here. The list shows a part of the results. Where a SMILES comes first, the peptide text is derived from it. The star is where a group is joined. For = O=C*
Provide the recorded normalized growth for the entries that follow.
One number for each entry.

Worked examples, 6 compounds total:
compound="Nc1c2c(nc3ccccc13)CCCC2O (centres undefined)" experimental_value=0.981
compound=Nc1ccc(S(=O)(=O)c2ccc(N)cc2)cc1 experimental_value=0.993
compound="CC(C)=CCCC1(C)C=Cc2c(O)c3c(c(CC=C(C)C)c2O1)OC12C(=CC4CC1C(C)(C)OC2(C/C=C(/C)C(=O)O)C4=O)C3=O (centres undefined)" experimental_value=0.98
compound=Nc1ccc(S(=O)(=O)Nc2cnc3ccccc3n2)cc1 experimental_value=0.981
compound=C/C=C1\[C@H]2C=C(C)C[C@]1(N)c1ccc(=O)[nH]c1C2 experimental_value=1.01
compound="CSCCC(NC=O)C(=O)NC(Cc1ccccc1)C(=O)O (stereo not drawn) (For-Met-Phe-OH; configuration not given here)" experimental_value=1.02

For each listed entry, give its normalized growth.
1. Cc1cc(O)cc(C)c1Cl
2. COc1cc(C(=O)O[C@H]2CC[C@@]3(C)[C@@H]4CC[C@H]5[C@]6(O)C[C@H](O)[C@@]7(O)[C@@H](CN8C[C@@H](C)CC[C@H]8[C@@]7(C)O)[C@]6(O)C[C@@]53O[C@]24O)cc(OC)c1OC
3. C[C@@H]1OC(O[C@H]2[C@H](OC(=O)[C@]34CCC(C)(C)CC3C3=CCC5[C@@]6(C)CC[C@H](OC7O[C@@H](C)[C@H](O[C@@H]8OC[C@@H](O)[C@H](O)[C@H]8O)[C@@H](O)[C@H]7O)C(C)(C)C6CC[C@@]5(C)[C@]3(C)CC4O)OC[C@H](O)[C@H]2O)[C@H](O)[C@H](O)[C@H]1O[C@@H]1O[C@H](CO)[C@@H](O)[C@H](O)[C@H]1O (some centres undefined)
4. Cc1cc(O)cc(O)c1C(=O)O

1. 1
2. 0.975
3. 0.996
4. 0.982

----------
test: chemical genetic growth profiling, strain panel (AID 1159580);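 further: tested at 20 µM; growth read once vehicle control cultures reached saturation at 30 °C; 1 = growth at the plate median or of vehicle wells; lower values mean less growth of the strain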; settings: S. cerevisiae deletion strains, growth OD, locus YGL167C, strain pmr1, active compounds read low
Among all 5,500 compounds or so, about 2,000 (36%) were called active. Roughly 18% stayed inconclusive and do not appear here. Some of the results follow.
Attribute measured: normalized growth
Give bare numbers.

compound=Nc1ccc(S(=O)(=O)c2ccc(N)cc2)cc1 experimental_value=0.995
compound="CC1(C)CC(O)C2(C)CCC3(C)C(=CCC4C5(C)CCC(O)C(C)(CO)C5CCC43C)C2C1 (stereo unspecified)" experimental_value=1.02
compound="C[C@@H]1OC(O[C@H]2C(O[C@H]3CC[C@@]4(C)C(CC[C@]5(C)C4CC=C4C6CC(C)(C)CC[C@]6(C(=O)O)CC[C@]45C)[C@]3(C)CO)OC[C@H](O)[C@@H]2O)[C@H](O)[C@H](O)[C@H]1O (stereo partly specified)" experimental_value=0.0718

For each listed entry, give its normalized growth.
1. CC(=O)O[C@@H]1CC[C@@]2(C)C(CC[C@]3(C)C2CC=C2C4CC(C)(C)CC[C@]4(C(=O)O)CC[C@]23C)C1(C)C (stereo partly specified)
2. Cc1ccnc(NS(=O)(=O)c2ccc(N)cc2)n1
3. CC1=NS(=O)(=O)c2cc(Cl)ccc2N1

1. 0.986
2. 0.992
3. 0.95

----------
assay: chemical genetic growth profiling, strain panel (AID 1159580);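 further: tested at 20 µM; growth read once vehicle control cultures reached saturation at 30 °C; 1 = growth at the plate median or of vehicle wells; lower values mean less growth of the strain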; settings: S. cerevisiae deletion strains, growth OD, locus YIL066C, strain RNR3, active compounds read low
In all, about 5,500 compounds went through this assay and about 2,000 (36%) were called active. Not shown: some 18% with an inconclusive outcome. Some of the results follow. Where a SMILES comes first, the peptide text is derived from it. Bridges are numbered along the chain shown (N, C = ends). [ ]: non-standard residue; d: D form. The star is where a group is joined. ξ: configuration not given here. ξDab(CH2SO3H) = NC(CCNCS(=O)(=O)O)C(=O)O; Heptanoyl(6-Me) = CC(C)CCCCC(=O)*; Dab = NCC[CH](N)C(=O)O; For = O=C*
Attribute measured: normalized growth
Numbers only.

Worked examples, 5 compounds total:
compound=COc1ccc2c(c1)c(CC(=O)O)c(C)n2C(=O)c1ccc(Cl)cc1 experimental_value=1
compound=N=C(N)c1ccc(OCCCCCOc2ccc(C(=N)N)cc2)cc1 experimental_value=0.917
compound="CSCCC(NC=O)C(=O)NC(Cc1ccccc1)C(=O)O (stereo not drawn) (For-Met-Phe-OH; configuration not given here)" experimental_value=1.01
compound="CCC(C)C1NC(=O)C(CCNCS(=O)(=O)O)NC(=O)C(NC(=O)C(CCNCS(=O)(=O)O)NC(=O)C(NC(=O)C(CCNCS(=O)(=O)O)NC(=O)CCCCC(C)C)C(C)O)CCNC(=O)C(C(C)O)NC(=O)C(CCNCS(=O)(=O)O)NC(=O)C(CCNCS(=O)(=O)O)NC(=O)C(C(C)CC)NC1=O (configuration not stated) ({Heptanoyl(6-Me)}-[ξDab(CH2SO3H)]T[ξDab(CH2SO3H)][Dab][ξDab(CH2SO3H)]II[ξDab(CH2SO3H)][ξDab(CH2SO3H)]T; lactam 4-C; configuration not given here)" experimental_value=0.977
compound=O=C1C(O)=C(O)C(=O)C(O)=C1O experimental_value=0.977

For each listed entry, give its normalized growth.
1. Cc1cc(O)cc(O)c1C(=O)O
2. CC(=O)/C=C\[C@@H]1[C@@]2(C)CCCC(C)(C)C2CC[C@@]1(C)O (some centres not stated)

1: 1.03; 2: 0.953

For each listed entry, give its normalized growth.
1. C=C/C(C)=C\CC1C(C)(O)CCC2C(C)(C)CCCC21C (configuration not stated)
2. Cc1cc(O)cc(C)c1Cl
3. COc1ccc2c(c1)c(CC(=O)OCC(=O)O)c(C)n2C(=O)c1ccc(Cl)cc1
4. COc1c(CC(=O)c2cc3c(cc2O)OC(C)(C)C(O)C3)ccc2c1C=CC(C)(C)O2 (configuration not stated)
5. N[C@H](C(=O)O)[C@@H]1CC(Cl)=NO1

[0.0635, 0.981, 1.02, 0.997, 0.468]
